- tested system: human c-Met on cells (NCI-H441, NCI-H292, U87-MG) (human, UniProt P08581 25-1390)
- Sequence (P08581 other isoform, or with tags, fused parts or gaps limits assumed): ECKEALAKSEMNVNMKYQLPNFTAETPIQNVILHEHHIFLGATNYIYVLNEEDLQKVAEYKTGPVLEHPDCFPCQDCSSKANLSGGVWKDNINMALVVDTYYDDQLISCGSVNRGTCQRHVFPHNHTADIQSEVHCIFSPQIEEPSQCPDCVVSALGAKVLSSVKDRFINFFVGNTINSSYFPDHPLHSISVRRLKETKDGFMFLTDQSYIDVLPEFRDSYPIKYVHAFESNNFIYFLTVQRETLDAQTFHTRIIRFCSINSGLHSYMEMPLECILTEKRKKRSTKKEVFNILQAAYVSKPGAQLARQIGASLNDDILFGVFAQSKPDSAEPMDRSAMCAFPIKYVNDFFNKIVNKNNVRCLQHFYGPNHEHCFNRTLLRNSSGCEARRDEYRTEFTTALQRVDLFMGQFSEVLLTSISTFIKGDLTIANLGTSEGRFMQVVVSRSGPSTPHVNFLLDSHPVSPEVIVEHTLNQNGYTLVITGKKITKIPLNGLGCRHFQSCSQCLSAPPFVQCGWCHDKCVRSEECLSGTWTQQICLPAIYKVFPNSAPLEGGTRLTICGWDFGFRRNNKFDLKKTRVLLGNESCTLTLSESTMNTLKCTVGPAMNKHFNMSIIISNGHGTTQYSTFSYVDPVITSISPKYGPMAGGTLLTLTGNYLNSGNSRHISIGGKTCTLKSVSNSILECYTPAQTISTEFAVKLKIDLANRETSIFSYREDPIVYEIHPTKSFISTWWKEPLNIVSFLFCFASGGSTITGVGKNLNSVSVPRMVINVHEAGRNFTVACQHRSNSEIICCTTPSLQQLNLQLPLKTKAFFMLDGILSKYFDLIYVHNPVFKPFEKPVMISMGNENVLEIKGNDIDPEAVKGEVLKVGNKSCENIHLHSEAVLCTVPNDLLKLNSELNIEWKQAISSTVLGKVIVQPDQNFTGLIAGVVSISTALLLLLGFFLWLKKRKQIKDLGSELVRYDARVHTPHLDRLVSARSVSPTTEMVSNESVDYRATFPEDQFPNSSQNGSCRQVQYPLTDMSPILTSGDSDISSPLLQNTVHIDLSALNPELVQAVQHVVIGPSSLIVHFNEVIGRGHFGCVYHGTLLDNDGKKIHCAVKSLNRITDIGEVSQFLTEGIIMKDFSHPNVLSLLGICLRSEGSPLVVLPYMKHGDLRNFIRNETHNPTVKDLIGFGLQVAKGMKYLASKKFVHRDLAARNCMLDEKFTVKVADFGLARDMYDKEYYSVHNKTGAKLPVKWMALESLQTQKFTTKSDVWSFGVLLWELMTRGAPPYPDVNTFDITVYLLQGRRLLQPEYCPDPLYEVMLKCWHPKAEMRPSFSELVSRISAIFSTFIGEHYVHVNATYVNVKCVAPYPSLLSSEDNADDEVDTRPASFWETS
- assay protocol: cell-based or functional assay
Give measured IC50 of inhibition of HGF-stimulated c-Met phosphorylation, NCI-H292 cells for each item. Keep answers brief.
Answers are plain numbers, in nM.

Previously resolved entries follow.
binder="ECB147v7-PEG24 (designed binder, PEG24-maleimide on the engineered cysteines) MLPAPKNLVVSEVTEDSARLSWDDPWAFYESFLIQYQESEKVGEAIVLTVPGSERSYDLTGLKPGTEYTVSIYGVHNVYKDTNMRGLPLSAIFTTAPCPAPAPAPLPAPKNLVVSRVTEDSARLSWTAPDAAFDSFWIRYFEFLGSGEAIVLTVPGSERSYDLTGLKPGTEYVVNIMSVKGGSISPPLSAIFTTAPCPAPAPAPLAEAKVLANRELDKYGVSDYYKNLINNAKTVEGVKALLDEILAALP" val=0.5
binder="ECB147v5-PEG24 (designed binder, PEG24-maleimide on the engineered cysteines) MLPAPKNLVVSEVTEDSARLSWDDPWAFYESFLIQYQESEKVGEAIVLTVPGSERSYDLTGLCPGTEYTVSIYGVHNVYKDTNMRGLPLSAIFTTAPAPAPAPAPLPAPKNLVVSRVTEDSARLSWTAPDAAFDSFWIRYFEFLGSGEAIVLTVPGSERSYDLTGLCPGTEYVVNIMSVKGGSISPPLSAIFTTAPAPAPAPAPLAEAKVLANRELDKYGVSDYYKNLINNAKTVEGVKALLDEILAALP" val=0.4
binder="ECB147v3-PEG24 (designed binder, PEG24-maleimide on the engineered cysteines) MLPAPKNLVVSEVTEDSARLSWDDPWAFYESFLIQYQESEKVGEAIVLTVPGSERSYDLTGLCPGTEYTVSIYGVHNVYKDTNMRGLPLSAIFTTAPCPAPAPAPLPAPKNLVVSRVTEDSARLSWTAPDAAFDSFWIRYFEFLGSGEAIVLTVPGSERSYDLTGLCPGTEYVVNIMSVKGGSISPPLSAIFTTAPCPAPAPAPLAEAKVLANRELDKYGVSDYYKNLINNAKTVEGVKALLDEILAALP" val=0.5

Now consider a different binder.
// lookup IC50 of inhibition of HGF-stimulated c-Met phosphorylation, NCI-H292 cells for ECB147v6-PEG24 (designed binder, PEG24-maleimide on the engineered cysteine) MLPAPKNLVVSEVTEDSARLSWDDPWAFYESFLIQYQESEKVGEAIVLTVPGSERSYDLTGLCPGTEYTVSIYGVHNVYKDTNMRGLPLSAIFTTAPAPAPAPAPLPAPKNLVVSRVTEDSARLSWTAPDAAFDSFWIRYFEFLGSGEAIVLTVPGSERSYDLTGLKPGTEYVVNIMSVKGGSISPPLSAIFTTAPAPAPAPAPLAEAKVLANRELDKYGVSDYYKNLINNAKTVEGVKALLDEILAALP
0.4
